measuredProperty: melting point

INSERT INTO assay_data (compound, measuredproperty, obsvalue) VALUES
  ('COc1cc2oc3ccccc3c(=O)c2cc1OCCCCn1ccnc1-c1ccccc1 [Compound 10b]', 'melting point', '132 to 134 °C'),
  ('C=CCc1c(OCC(O)Cn2ccnc2-c2ccccc2)c(OC)cc2oc3ccccc3c(=O)c12 (stereo not drawn) [Compound 12e]', 'melting point', '187 to 189 °C'),
  ('C=CCOc1cc2c(=O)c3ccccc3oc2cc1OC [Compound 6d, 2-(Allyloxy)-3-methoxy-9H-xanthen-9-one]', 'melting point', '150 to 151 °C'),
  ('C=CCc1c(OCC2CO2)c(OC)cc2oc3ccccc3c(=O)c12 (stereo not drawn) [Compound 11b]', 'melting point', '115 to 116 °C'),
  ('COc1cc2oc3ccccc3c(=O)c2cc1OCC(O)Cn1ccnc1-c1ccccc1 (stereo not drawn) [Compound 12b]', 'melting point', '157 to 159 °C'),
  ('COc1cc2oc3ccccc3c(=O)c2cc1OCC(O)Cn1ccnc1 (stereo not drawn) [Compound 12a]', 'melting point', '146 to 148 °C'),
  ('COc1cc2oc3ccccc3c(=O)c2cc1OCC1CO1 (stereo not drawn) [Compound 11a]', 'melting point', '143 to 144 °C'),
  ('COC(=O)COc1cc2c(=O)c3ccccc3oc2cc1OC [Compound 6a]', 'melting point', '139 to 140 °C'),
  ('C=CCc1c(OCC(O)Cn2ccnc2)c(OC)cc2oc3ccccc3c(=O)c12 (stereo not drawn) [Compound 12d]', 'melting point', '187 to 189 °C');
